The reader will find reported IC50 values listed item by item below.
testSystem: Probable nicotinate-nucleotide adenylyltransferase (Staphylococcus aureus (strain N315));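 also: confirmatory retest of primary uHTS inhibitor hits against NadD over a range of doses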
Sequence (P65502 whole entry): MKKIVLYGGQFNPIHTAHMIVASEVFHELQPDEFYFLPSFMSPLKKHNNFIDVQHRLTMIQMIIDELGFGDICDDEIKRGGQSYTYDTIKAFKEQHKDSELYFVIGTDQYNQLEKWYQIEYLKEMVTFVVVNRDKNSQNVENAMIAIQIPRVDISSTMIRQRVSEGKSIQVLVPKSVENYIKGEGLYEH
Assay type: functional, Staphylococcus aureus subsp. aureus N315
Active and inactive are the calls of the source.

A selection of reference data follows.
Cc1cc(C)c2nc(NNC(=O)c3ccc(S(=O)(=O)N4CCc5ccccc5C4)cc3)sc2c1	7.18 µM (active)
NS(=O)(=O)c1ccc(NC(=O)COC(=O)c2c3c(nc4ccccc24)/C(=C\c2ccc4c(c2)OCO4)CCC3)cc1	11.9 µM (active)
Cc1ccc(-n2nc3c(c2NC(=O)c2ccc(Br)o2)CSC3)c(C)c1	2.11 µM (active)

Now consider the entry below.
Qu. Tell us which IC50 value is on record for O=C(Nc1ccc(S(=O)(=O)Nc2nccs2)cc1)c1cc(-c2ccccc2)nc2ccccc12
Ans. 6.12 µM (active)

The reported numbers originate from ChEMBL document CHEMBL1201862.
